# credit: the Human Domainome abundance scans (Beltran et al. 2025)

B1: Tyrosine-protein kinase BTK, residues 215 to 273; numbered along this chain, Q06187 (parent)
chain: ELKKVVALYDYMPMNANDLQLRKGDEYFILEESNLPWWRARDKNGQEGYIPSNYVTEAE

- Variants of: B1
- assay.name: abundance fitness (aPCA) (normalised: wild type 0, dead -1); higher = more abundant; growth selection in yeast, the domain comes from the species named
- cond: Homo sapiens
Each entry gets not fulfilled if its abundance fitness stays under -0.07, and fulfilled if its abundance fitness is -0.07 or above.

Examples with answers:
G48P | not fulfilled
A40D | not fulfilled
E57F | fulfilled
I29E | not fulfilled
D18V | fulfilled

INPUT: Record N34H ; criterion: abundance fitness no lower than -0.07. Met?
OUTPUT: fulfilled

INPUT: Form field: abundance fitness at least -0.07? Entry: E26P
OUTPUT: fulfilled

INPUT: Does the reported abundance fitness for T56Q fall at or above the -0.07 mark?
OUTPUT: fulfilled

INPUT: Hi, just wondering whether L30I shows abundance fitness of -0.07 or higher.
OUTPUT: fulfilled

INPUT: Tell me whether abundance fitness is at least -0.07 here: Q46S
OUTPUT: fulfilled

INPUT: Check the entry D42Y : does abundance fitness equal or exceed -0.07?
OUTPUT: not fulfilled

INPUT: Does the reported abundance fitness for L35Q fall at or above the -0.07 mark?
OUTPUT: fulfilled

INPUT: Can E26F be said to have abundance fitness at or above -0.07?
OUTPUT: fulfilled

INPUT: Could you please find out whether G48N has abundance fitness that meets -0.07 or exceeds it?
OUTPUT: not fulfilled

INPUT: Item E57W with abundance fitness of -0.07 or above?
OUTPUT: fulfilled

INPUT: Is abundance fitness at least -0.07? Consider N53T
OUTPUT: fulfilled

INPUT: Confirm if abundance fitness reported for the variant D18Q is -0.07 or above.
OUTPUT: fulfilled

INPUT: Quick check: does L21C have abundance fitness greater than or equal to -0.07?
OUTPUT: not fulfilled

INPUT: Test whether the variant N34M records abundance fitness of -0.07 or higher.
OUTPUT: fulfilled

INPUT: Form field: abundance fitness at least -0.07? Entry: W37F
OUTPUT: fulfilled
